B1: CDS2 (parent)
chain: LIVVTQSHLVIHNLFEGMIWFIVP

variants of: B1; test: protein stability index of a GFP-peptide fusion (GPS, HEK-293T) (PSI 1-6); higher = more stable; conditions: c terminus: a fixed tail appended;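 note: lentivirally expressed fusions sorted by FACS into six bins by GFP to DsRed ratio, PSI derived from sequencing read proportions per bin multiplied by bin number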
Parameter: protein stability index. Scope: all listed entries.

variant: H8F
protein stability index: 3.38
--
variant: L9H
protein stability index: 1.56
--
variant: I22F
protein stability index: 2.83

## Task Can you look up the measured protein stability index of V4P for me?
## Result 2.36

## Task Follow-up item: P24L
## Result 2.19
